pIC50: −log10 of the molar value.
Record: compiled pIC50 on 72 kDa type IV collagenase (Homo sapiens) from multiple reports.

Recorded results for 6 molecules are shown here.
molecule | pIC50
C[C@@H](NS(=O)(=O)N1CCN(c2ccc(C#Cc3ccc4ccn(Cc5ccccc5)c(=O)c4c3)cc2)CC1)C(=O)O | 5.00 to 6.00
CC(C)[C@@H](NS(=O)(=O)N1CCN(c2ccc(C#Cc3ccnc(C(=O)NCc4ccc(C#N)cc4)c3)cc2)CC1)C(=O)O | 5.00 to 6.00
COc1ccc(Cn2ccc3ccc(C#Cc4ccc(N5CCN(S(=O)(=O)N[C@H](C)C(=O)O)CC5)cc4)cc3c2=O)cc1 | 5.00 to 6.00
CCCc1ccc(-c2nc(-c3ccc(S(=O)(=O)N[C@H](C)C(=O)O)cc3)no2)cc1 | 8.93
CC(=O)N(O)C(C=C1CCSCC1)CS(=O)(=O)c1ccc(OCc2cc(C)nc3ccccc23)cc1 (stereo not shown) | < 4.00
CC(C)[C@@H](NS(=O)(=O)N1CCN(c2ccc(C#Cc3ccnc(C(=O)NCc4ccc5oc(=O)n(C)c5c4)c3)cc2)CC1)C(=O)O | 5.00 to 6.00

Please examine the following record next.
Please tell me: pIC50 of CC(C)ON([C@H](CCNC(=O)c1ccccc1)C(=O)NO)S(=O)(=O)c1ccc(-c2ccccc2)cc1 , system 72 kDa type IV collagenase (Homo sapiens)?
8.83

###

Record: compiled IC50 on 72 kDa type IV collagenase (Homo sapiens) from multiple reports.
test_readout: IC50 (nM)

Recorded results for 2 compounds are shown here.
compound | IC50 (nM)
Cc1ccc(-c2nc(-c3ccc(S(=O)(=O)NCC(=O)O)cc3)no2)s1 | 33.9
O=C(O)[C@@H]1[C@@H](Cn2nnc3ccc(C(F)(F)F)cc3c2=O)CC[C@H]1C(=O)c1ccc(SCc2ccc(Cl)c(Cl)c2)cc1 (single isomer, unassigned) | 1400

a. CCCCOc1ccc(C(=O)Nc2ccc(S(=O)(=O)CC(C)(O)C(=O)NO)cc2)cc1 (stereo not shown)
b. CN(C)c1cc(N=[N+]=[N-])c(O)c2c1CC1CC3C(N(C)C)C(O)=C(C(N)=O)C(=O)C3(O)C(O)=C1C2=O (stereo not shown)
Choose between a and b : whose measured IC50 value is numerically larger? In your reply, give the label of the chosen option.
b

###

Record: compiled IC50 on 72 kDa type IV collagenase (Homo sapiens) from multiple reports.
test_readout: IC50 (µM)

a. O=C(NO)C(CCS(=O)(=O)c1ccc(Oc2ccccc2)cc1)N1CCCCC1 (stereo not shown)
b. O=C(O)[C@@H]1[C@@H](Cn2nnc3ccc(C(F)(F)F)cc3c2=O)CC[C@H]1C(=O)c1ccc(SCc2ccccc2)cc1 (single isomer, unassigned)
c. O=C(O)[C@H](Cc1ccccc1)NS(=O)(=O)c1ccc(-c2ccc(C#Cc3ccc4ccccc4c3)cc2)cc1
d. Cc1ccc(-c2nc(-c3ccc(S(=O)(=O)NCC(=O)O)s3)no2)cc1
Sort the items above by IC50, starting with the smallest value. Respond with the label ranking, as requested.
a, d, b, c
(a: 0.0077 µM, d: 0.039 µM, b: 4.2 µM, c: 8.99 µM)

###

pIC50: −log10 of the molar value.
Record: compiled pIC50 on 72 kDa type IV collagenase (Homo sapiens, UniProt P08253) from multiple reports.
test_readout: pIC50

Recorded results for 5 molecules are shown here.
molecule | endpoint_value
CC1c2c(N(C)C)ccc(O)c2C(=O)C2=C(O)C3(O)C(=O)C(C(N)=O)=C(O)C(N(C)C)C3C(O)C21 (stereo not shown) | 3.63
CN(C(=O)OC(C)(C)C)[C@H](CS(=O)(=O)c1ccc(Oc2ccccc2)cc1)C(=O)NO | 9.52
Cc1ccc2nnn(C[C@H]3CC[C@@H](C(=O)c4ccc(OCCC5CCOCC5)cc4)[C@@H]3C(=O)O)c(=O)c2c1 (single isomer, unassigned) | 6.52
CCN(CC)C(=O)CN1CC[C@H]2C[C@@H](C(=O)NO)N(S(=O)(=O)c3ccc(OC)cc3)[C@H]2C1 (relative stereo) | 5.92
COc1ccc2[nH]cc(C[C@@H](NS(=O)(=O)c3ccc(C#Cc4ccc(C)cc4)s3)C(=O)O)c2c1 | 7.97

I. O=C(O)[C@H]1[C@H](Cn2nnc3ccccc3c2=O)CC[C@@H]1C(=O)c1ccc(OCc2cccc(Cl)c2)cc1 (racemic)
II. Cc1cc(COc2ccc(S(=O)(=O)CC(C=C3CCC(=O)CC3)N(O)C=O)cc2)cc(C)n1 (stereo not shown)
III. Cc1cc(COc2ccc(S(=O)(=O)CC(CN3CCN(CC(C)C)CC3)N(O)C=O)cc2)c2ccccc2n1 (stereo not shown)
Returns the items ordered by pIC50, from maximum to minimum. Respond with the label ranking, as requested.
I, II, III
(I: 6.54, II: 5.15, III: 4.70)

###

Record: compiled IC50 on 72 kDa type IV collagenase (Homo sapiens, UniProt P08253) from multiple reports.
test_readout: IC50 (µM)

molecule | endpoint_value
O=C(O)C[C@@H](NS(=O)(=O)c1ccc(C#Cc2ccc3ccccc3c2)s1)C(=O)O | 1.25
CC(C)ON([C@H](CCNS(C)(=O)=O)C(=O)NO)S(=O)(=O)c1ccc(-c2ccccc2)cc1 | 0.00098
Cc1cc(COc2ccc(S(=O)(=O)CC(C3CSC(=O)N3C)N(O)C=O)cc2)c2ccccc2n1 (stereo not shown) | 21
COc1ccc(C(=O)Nc2ccc(-c3ccc(S(=O)(=O)N[C@H](C)C(=O)O)cc3)cc2)cc1OC | 0.839
CCCCCCCOc1ccc2cc(C(=O)CC(CCn3nnc4ccccc4c3=O)C(=O)O)oc2c1 (single isomer, unassigned; (+)) | 2.9
O=C(O)[C@@H]1[C@@H](Cn2nnc3ccc(C(F)(F)F)cc3c2=O)CC[C@H]1C(=O)c1ccc(OCC2CCCC2)cc1 (single isomer, unassigned) | 0.27
O=C(O)[C@@H](Cc1ccccc1)NS(=O)(=O)c1ccc(-c2noc(-c3ccccc3)n2)cc1 | 0.0279
O=C(CC(CCn1nnc2ccccc2c1=O)C(=O)O)c1cc2cc(OCc3cccc(Cl)c3)ccc2o1 (racemic) | 3.8

I. Cc1ccc2nnn(C[C@@H]3CC[C@H](C(=O)c4ccc(OCCC5CCOCC5)cc4)[C@H]3C(=O)O)c(=O)c2c1 (racemic)
II. Cc1ccc2nnn(C[C@H]3CC[C@@H](C(=O)c4ccc(OCC5CCCCC5)cc4)[C@@H]3C(=O)O)c(=O)c2c1 (single isomer, unassigned)
Which value of IC50 is smaller, the one for I or the one for II ? In your reply, give the label of the chosen option.
II

###

Record: compiled IC50 on 72 kDa type IV collagenase (Homo sapiens) from multiple reports.
test_readout: IC50 (nM)

molecule | IC50 / nM
O=C(O)CN(CC(=O)NO)S(=O)(=O)c1ccc(Oc2ccc(Br)cc2)cc1 | 0.87

a. CC(C)(Cc1ccc(C(F)(F)F)cc1)C(=O)NC[C@@]1(C2CC2)NC(=O)NC1=O
b. Cc1ccc2nnn(C[C@@H]3CC[C@H](C(=O)c4ccc(OCc5ccccc5)cc4)[C@H]3C(=O)O)c(=O)c2c1 (racemic)
c. CN(C)C1C(O)=C(C(N)=O)C(=O)C2(O)C(O)=C3C(=O)c4c(O)c(Br)cc(Br)c4CC3CC12 (stereo not shown)
d. COc1ccc(-c2ccc(S(=O)(=O)N(OC(C)C)[C@H](CCN3C(=O)c4ccccc4C3=O)C(=O)NO)cc2)cc1
e. CC(C)c1ccc(-c2nc(-c3ccc(S(=O)(=O)NCC(=O)O)cc3)no2)cc1
Returns the items ordered by IC50, from maximum to minimum. Respond with the label ranking, as requested.
c, a, b, e, d
(c: 48000 nM, a: 4650 nM, b: 100 nM, e: 14.3 nM, d: 0.67 nM)

###

Record: compiled IC50 on 72 kDa type IV collagenase (Homo sapiens) from multiple reports.
test_readout: IC50 (µM)

compound | endpoint_value
CC(O)(CS(=O)(=O)c1ccc(NC(=O)c2ccc(F)c(F)c2)cc1)C(=O)NO (centres unmarked) | 0.0016
O=C(O)[C@H]1[C@H](Cn2nnc3ccc(C(F)(F)F)cc3c2=O)CC[C@@H]1C(=O)c1cc2cc(OCCc3ccccc3)ccc2o1 (racemic) | 0.88
CC(C)(C)OC(=O)N1CCC(CCS(=O)(=O)c2ccc(Oc3ccccc3)cc2)(C(=O)NO)CC1 | 0.169

a. Cc1cc(COc2ccc(S(=O)(=O)CC(C=C3CCOCC3)N(O)C=O)cc2)cc(C)n1 (centres unmarked)
b. O=C(/C=C/c1ccccc1)Nc1ccc(-c2ccc(S(=O)(=O)N[C@H](Cc3ccccc3)C(=O)O)cc2)cc1
Choose between a and b : whose measured IC50 value is numerically larger? In your reply, give the label of the chosen option.
a

I. CC(C)C[C@H](NS(=O)(=O)c1ccc(-c2ccc(C#Cc3ccc4ccccc4c3)cc2)cc1)C(=O)O
II. Cc1cncc(C(CS(=O)(=O)c2ccc(OCc3cc(C)nc4ccc(C)cc34)cc2)N(O)C=O)c1 (centres unmarked)
III. Cc1ccc(-c2nc(-c3ccc(S(=O)(=O)N[C@@H](Cc4ccccc4)C(=O)O)cc3)no2)cc1
IV. CC(C)C[C@@H](NS(=O)(=O)c1ccc(-c2ccc(C#Cc3ccc4ccccc4c3)cc2)cc1)C(=O)O
Number of compounds to sort: 4. Sort criterion: IC50, ascending. Respond with the label ranking, as requested.
III, I, IV, II
(III: 0.0398 µM, I: 0.327 µM, IV: 0.499 µM, II: 36 µM)
